Recorded normalized growth, one value per entry.
assay: chemical genetic growth profiling, strain panel (AID 1159580);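 further: tested at 20 µM; growth read once vehicle control cultures reached saturation at 30 °C; 1 = growth at the plate median or of vehicle wells; lower values mean less growth of the strain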; details: S. cerevisiae deletion strains, growth OD, locus YJL154C, strain vps35, active compounds read low
The campaign covered roughly 5,500 compounds. About 2,000 (36%) were called active. About 18% were inconclusive and are not listed. The list shows a part of the results.
Response field accepts a number only; no unit should be typed.

[
  {
    "compound": "C[C@]12CCC3c4ccc(O)cc4CCC3C1CC[C@@H]2OC(=O)CCC1CCCC1 (some centres not stated)",
    "normalized growth": 1.01
  },
  {
    "compound": "COP(=S)(OC)SCn1nnc2ccccc2c1=O",
    "normalized growth": 1.02
  },
  {
    "compound": "OC[C@@H](O)C(O[C@@H]1O[C@H](CO)[C@H](O)[C@H](O)[C@H]1O)[C@H](O)[C@@H](O)CO (some centres not stated)",
    "normalized growth": 0.991
  },
  {
    "compound": "Nc1ncnc2nc[nH]c12",
    "normalized growth": 0.997
  }
]

stdin: Sample CNC(=O)CSP(=S)(OC)OC — what was its normalized growth?
stdout: 1.01

stdin: Sample FC(F)(F)COCC(F)(F)F — what was its normalized growth?
stdout: 1.04

stdin: Sample O=C1OC(=O)C2C3CCC(O3)C12 (configuration not stated) — what was its normalized growth?
stdout: 0.999

stdin: Sample Nc1ncnc2c1ncn2[C@@H]1O[C@H](CO)[C@@H](O)[C@@H]1O — what was its normalized growth?
stdout: 1.02

stdin: Sample CCCCCN=C(N)N/N=C\c1c[nH]c2ccc(OC)cc12 — what was its normalized growth?
stdout: 1.01

stdin: Sample CC(=O)Oc1ccc2c(c1)CCC1C2CC[C@@]2(C)C1CC[C@@H]2OC(C)=O (some centres not stated) — what was its normalized growth?
stdout: 0.995

stdin: Sample c1coc(CNc2ncnc3nc[nH]c23)c1 — what was its normalized growth?
stdout: 0.997

stdin: Sample CCC(=O)O[C@H]1CCC2C3CCc4cc(O)ccc4C3CC[C@@]21C (some centres not stated) — what was its normalized growth?
stdout: 0.995

====

Recorded normalized growth, one value per entry.
assay: chemical genetic growth profiling, strain panel (AID 1159580);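 further: tested at 20 µM; growth read once vehicle control cultures reached saturation at 30 °C; 1 = growth at the plate median or of vehicle wells; lower values mean less growth of the strain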; settings: S. cerevisiae deletion strains, growth OD, locus YJL166W, strain qcr8, active compounds read low
Screen size: about 5,500 compounds; about 2,000 (36%) were called active. Roughly 18% stayed inconclusive and do not appear here. The list shows a part of the results.
Response field accepts a number only; no unit should be typed.

[
  {
    "molecule": "CC1(C)C[C@@H]2C(=O)CC[C@H]3O[C@]3(C)CC[C@H]21",
    "normalized growth": 1.04
  }
]

stdin: Sample OCCN1CCN(CCCN2c3ccccc3Sc3ccc(Cl)cc32)CC1 — what was its normalized growth?
stdout: 1.01

stdin: Sample CC(=O)N[C@@H](CC(=O)O)C(=O)O — what was its normalized growth?
stdout: 1.01

stdin: Sample CCCCC/C=C\C/C=C\C/C=C\C/C=C\CCCC(=O)O — what was its normalized growth?
stdout: 0.959

stdin: Sample FC(F)(F)COCC(F)(F)F — what was its normalized growth?
stdout: 0.986

stdin: Sample COC(=O)C1=CO[C@@H](O[C@@H]2O[C@H](CO)[C@@H](O)[C@H](O)[C@H]2O)[C@@H]2[C@@H](C)[C@@H](O)C[C@H]12 — what was its normalized growth?
stdout: 0.972
